Assay: Toxicity liver stage against HepG2, at 10uM
Type: cell-based
Parameters: test concentration 10 uM, cell line HepG2-A16-CD81EGFP
Conditions: human, HepG2-A16-CD81EGFP cells; read-out: INHIBITION
// values below are reported cytotoxicity at 10 µM
Just the number please, in %, no unit attached.

CCn1ccnc1CN1CCCN(C(=O)c2cncnc2C)CC1	5.65
CNc1ccnc(N(C)Cc2cc(-c3cccs3)n[nH]2)n1	-4.57
CCOc1c(Br)cc(C2c3c(n[nH]c3C)N=C3COC(=O)C32)cc1OC (centres undefined)	47.1
N#Cc1cccc(OCc2ccoc2C(=O)N2CCCCC2)c1	-6.57
CC(C)n1ncc2c1NC(=O)CC21C(=O)Nc2c(Cl)ccc(Cl)c21 (centres undefined)	1.19
CC(=O)c1cc(CC(=O)NCc2ccc(F)cc2)cs1	-18.7
O=C(c1ccc(F)cc1)N1CC[C@H]2[C@H]1CCN2CC1CCOCC1	-76.4
CCc1cnc(N2CCC3(CCN(CC)C3=O)CC2)nc1	1.61

Continue with the next compound.
Kindly note the recorded cytotoxicity at 10 µM for `COc1ccccc1CNC(=O)CNCCn1cc(C)cn1` , which is -1.9
